Assay system: human HSL (Homo sapiens)
Construct: overlapping PCR to generate a full length human HSL ORF with a 3′-His6 tag; His6 (C)
Method description: Human Hormone-Sensitive Lipase (HSL) Enzyme Inhibition Assay
Condition label: colorimetric assay, 2,3-dimercapto-1-propanol tributyrate (DMPT) substrate, 37° C. for 20 minutes, absorbance at 405 nm; read-out: HSL hum IC50
Property name: IC50 (nM)

Compound	Obs value
CCc1ccc(N2CCC3(CCN(S(=O)(=O)c4ccccc4N4CCCC4=O)CC3)C2=O)cc1	170
CC(C)OCC(=O)N1CCC2(CC1)CCN(c1ccc(OC(F)(F)F)cc1)C2=O	220
CCN(C(=O)N1CCC2(CC1)CCN(c1ccc(OC(F)(F)F)cc1)C2=O)c1ccccc1	40
CC1CCCCN1C(=O)N1CCC2(CC1)CCN(c1ccc(OC(F)(F)F)cc1)C2=O (stereo not drawn)	100
CC(Oc1ccc(N2CCC3(CCN(S(=O)(=O)c4ccccc4Cl)CC3)C2=O)cn1)C(F)(F)F (racemic)	50
CCC(C)(O)CC(=O)N1CCC2(CC1)CCN(c1ccc(OC(F)(F)F)cc1)C2=O (stereo not drawn)	470
O=C(N1CCOCC1)N1CCC2(CC1)CCN(c1ccc(OC(F)(F)F)cc1)C2=O	610
O=C1N(c2ccc(OC(F)(F)F)cc2)CCC12CCN(S(=O)(=O)N1CCOCC1)CC2	90
O=C1N(c2ccc(OC(F)(F)F)cc2)CCC12CCN(S(=O)(=O)c1cccnc1NCCO)CC2	40
CCCNC(=O)N1CCC2(CC1)CCN(c1ccc(OC(F)(F)F)cc1)C2=O	470
CC(Oc1ccc(N2CCC3(CCN(S(=O)(=O)CC(C)(C)C)CC3)C2=O)cc1)C(F)(F)F (racemic)	130
CCc1ccc(N2CCC3(CCN(S(=O)(=O)CC(C)C)CC3)C2=O)cc1	100
CCc1ccc(N2CCC3(CCN(S(=O)(=O)c4ccc(C)s4)CC3)C2=O)cc1	60
O=C1N(c2ccc(C3CC3)cc2)CCC12CCN(S(=O)(=O)c1ccccc1OC(F)(F)F)CC2	110
O=C1N(c2ccc(C(O)C(F)(F)F)cc2)CCC12CCN(S(=O)(=O)c1ccccc1C(F)(F)F)CC2 (stereo not drawn)	20

###

Assay system: human HSL (Homo sapiens, UniProt Q05469)
Construct: overlapping PCR to generate a full length human HSL ORF with a 3′-His6 tag; His6 (C)
Method description: Human Hormone-Sensitive Lipase (HSL) Enzyme Inhibition Assay
Condition label: colorimetric assay, 2,3-dimercapto-1-propanol tributyrate (DMPT) substrate, 37° C. for 20 minutes, absorbance at 405 nm; read-out: HSL hum IC50
Protocol: Production of Human Full Length Hormone Sensitive Lipase-His^6 1) Cloning: cDNA was prepared from commercial human brain polyA-+ RNA and used as a template in overlapping PCR to generate a full length human HSL ORF with a 3′-His6 tag. […] Cells were thawed. […] The protein concentration was calculated from absorbance at 280 nm, using 280=0.67 cm-1 mg-1. […] HSL enzyme activity was measured by a colorimetric assay using 2,3-dimercapto-1-propanol tributyrate (Aldrich, St. Louis, Mo.) as a substrate. […]
Property name: log10 IC50 (log10 of the value in nM)

Molecule	Obs value
O=C1N(c2ccc(C(F)(F)F)c(Cl)c2)CCC12CCN(S(=O)(=O)c1ccccc1Cl)CC2 [Example 227]	1.90
O=C1N(c2ccc(CO)cc2)CCC12CCN(S(=O)(=O)c1ccccc1Cl)CC2 [Example 141]	2.56
CC(C)CN(C)C(=O)N1CCC2(CC1)CCN(c1ccc(C3CC3)cc1)C2=O [Example 313]	1.95
CCc1ccc(N2CCC3(CCN(S(=O)(=O)c4ccccc4C(F)(F)F)CC3)C2=O)cc1 [Example 67]	1.78
CC(C)c1cc(CS(=O)(=O)N2CCC3(CCN(c4ccc(OC(F)(F)F)cc4)C3=O)CC2)on1 [Example 233]	2.30
O=C(COCc1ccccc1)N1CCC2(CC1)CCN(c1ccc(OC(F)(F)F)cc1)C2=O [Example 220]	1.90
CC(C)(Oc1ccc(N2CCC3(CCN(S(=O)(=O)c4ccccc4)CC3)C2=O)cc1)C(F)(F)F [Example 5]	1.60
Cc1nc2ccc(N3CCC4(CCN(S(=O)(=O)c5ccccc5Cl)CC4)C3=O)cc2s1 [Example 127]	1.78
CC(Cc1ccc(F)cc1)N1CCC2(CCN(S(=O)(=O)c3ccccc3Cl)CC2)C1=O (centres unmarked) [Example 249]	2.66
COCCCOc1ccc(N2CCC3(CCN(S(=O)(=O)c4ccccc4OC(F)(F)F)CC3)C2=O)cc1 [Example 109]	1.60
O=C1N(c2ccc(C3(O)CCC3)cc2)CCC12CCN(S(=O)(=O)c1ccccc1Cl)CC2 [Example 231]	1.30

###

Measured pIC50, listed per entry for reference.
Assay system: human HSL (Homo sapiens, UniProt Q05469)
Construct: overlapping PCR to generate a full length human HSL ORF with a 3′-His6 tag; His6 (C)
Sequence (Q05469 1-1076): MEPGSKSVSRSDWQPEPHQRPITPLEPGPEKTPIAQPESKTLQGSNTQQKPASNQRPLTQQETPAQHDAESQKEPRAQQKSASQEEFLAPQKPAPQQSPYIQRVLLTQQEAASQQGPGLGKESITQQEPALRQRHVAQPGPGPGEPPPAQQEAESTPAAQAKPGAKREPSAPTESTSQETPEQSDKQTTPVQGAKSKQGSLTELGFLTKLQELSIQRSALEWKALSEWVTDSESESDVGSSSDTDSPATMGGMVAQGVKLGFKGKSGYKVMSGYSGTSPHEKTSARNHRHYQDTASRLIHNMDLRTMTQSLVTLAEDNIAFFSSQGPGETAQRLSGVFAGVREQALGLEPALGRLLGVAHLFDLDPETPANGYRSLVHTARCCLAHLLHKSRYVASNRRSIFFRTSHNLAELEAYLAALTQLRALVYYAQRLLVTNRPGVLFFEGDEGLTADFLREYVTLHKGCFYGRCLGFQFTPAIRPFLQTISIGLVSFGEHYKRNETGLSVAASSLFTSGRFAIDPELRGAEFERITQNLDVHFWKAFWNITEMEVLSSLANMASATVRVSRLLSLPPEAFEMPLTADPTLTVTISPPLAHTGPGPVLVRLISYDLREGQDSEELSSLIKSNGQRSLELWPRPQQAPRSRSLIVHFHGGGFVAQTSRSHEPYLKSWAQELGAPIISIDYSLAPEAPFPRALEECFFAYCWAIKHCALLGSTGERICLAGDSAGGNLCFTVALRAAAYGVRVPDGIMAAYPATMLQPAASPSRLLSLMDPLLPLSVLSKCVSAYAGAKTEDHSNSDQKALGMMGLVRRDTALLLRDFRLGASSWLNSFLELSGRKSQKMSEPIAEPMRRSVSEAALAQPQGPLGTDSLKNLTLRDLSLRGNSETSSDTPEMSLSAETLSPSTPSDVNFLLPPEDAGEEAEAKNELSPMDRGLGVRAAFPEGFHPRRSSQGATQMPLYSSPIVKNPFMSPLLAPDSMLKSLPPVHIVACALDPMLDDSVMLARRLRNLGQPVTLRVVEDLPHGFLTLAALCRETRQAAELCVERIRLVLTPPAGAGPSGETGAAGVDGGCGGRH
Method description: Human Hormone-Sensitive Lipase (HSL) Enzyme Inhibition Assay
Condition label: colorimetric assay, 2,3-dimercapto-1-propanol tributyrate (DMPT) substrate, 37° C. for 20 minutes, absorbance at 405 nm; read-out: HSL hum IC50
pIC50: −log10 of the molar value.
Property name: pIC50

O=C1N(c2ccc(OC(F)(F)F)cc2)CCC12CCN(S(=O)(=O)c1cccnc1NC1CC1)CC2 7.10
CC(C)CS(=O)(=O)N1CCC2(CCN(c3ccc(OC(F)(F)F)cc3)C2=O)CC1 7.10
CSc1ccc(N2CCC3(CCN(S(=O)(=O)c4ccccc4Cl)CC3)C2=O)cc1 7.00
O=C1N(c2ccc(C3CC3)cc2)CCC12CCN(S(=O)(=O)c1ccccc1C(F)(F)F)CC2 7.10

###

Assay system: human HSL (Homo sapiens, UniProt Q05469)
Construct: overlapping PCR to generate a full length human HSL ORF with a 3′-His6 tag; His6 (C); made in house; host or cells: High 5 insect cells (baculovirus, pFast-BAC)
Sequence (Q05469 1-1076): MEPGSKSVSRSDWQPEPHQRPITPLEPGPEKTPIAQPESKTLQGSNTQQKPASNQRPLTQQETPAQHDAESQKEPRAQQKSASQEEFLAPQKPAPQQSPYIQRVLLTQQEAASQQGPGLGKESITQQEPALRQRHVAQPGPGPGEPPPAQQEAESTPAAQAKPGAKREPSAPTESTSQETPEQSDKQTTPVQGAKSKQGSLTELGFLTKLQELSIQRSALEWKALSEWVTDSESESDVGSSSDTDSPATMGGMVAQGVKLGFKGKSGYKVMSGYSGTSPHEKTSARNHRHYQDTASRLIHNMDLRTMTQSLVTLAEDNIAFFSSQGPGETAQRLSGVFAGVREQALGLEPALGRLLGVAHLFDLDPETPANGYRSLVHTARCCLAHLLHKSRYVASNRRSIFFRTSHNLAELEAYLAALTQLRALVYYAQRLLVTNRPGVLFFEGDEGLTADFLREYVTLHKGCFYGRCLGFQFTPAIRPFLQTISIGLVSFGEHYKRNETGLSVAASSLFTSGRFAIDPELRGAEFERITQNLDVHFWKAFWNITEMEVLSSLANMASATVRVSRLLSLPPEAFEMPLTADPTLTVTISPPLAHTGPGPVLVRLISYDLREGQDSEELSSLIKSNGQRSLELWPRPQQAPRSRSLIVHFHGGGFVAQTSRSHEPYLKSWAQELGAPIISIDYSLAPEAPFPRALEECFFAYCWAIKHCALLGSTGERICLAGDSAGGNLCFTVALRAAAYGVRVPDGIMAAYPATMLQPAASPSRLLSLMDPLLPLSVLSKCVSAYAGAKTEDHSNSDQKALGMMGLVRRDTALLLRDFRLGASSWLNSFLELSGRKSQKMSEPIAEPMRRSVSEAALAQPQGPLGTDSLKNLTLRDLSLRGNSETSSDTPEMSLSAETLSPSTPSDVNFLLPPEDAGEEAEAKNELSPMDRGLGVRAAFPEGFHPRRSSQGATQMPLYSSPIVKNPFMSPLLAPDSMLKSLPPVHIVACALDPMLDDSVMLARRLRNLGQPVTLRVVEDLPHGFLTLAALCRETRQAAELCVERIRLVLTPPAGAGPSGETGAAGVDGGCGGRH
Method description: Human Hormone-Sensitive Lipase (HSL) Enzyme Inhibition Assay
Type: biochemical
Condition label: colorimetric assay, 2,3-dimercapto-1-propanol tributyrate (DMPT) substrate, 37° C. for 20 minutes, absorbance at 405 nm; read-out: HSL hum IC50
Measured IC50, listed per entry for reference.
Property name: IC50 (nM)

O=C(CCC1CC1)N1CCC2(CC1)CCN(c1ccc(OC(F)(F)F)cc1)C2=O 150
CN(C(=O)N1CCC2(CC1)CCN(c1ccc(OC(F)(F)F)cc1)C2=O)c1ccc(Cl)c(Cl)c1 110
O=C1N(c2ccc(OC(F)(F)F)cc2)CCC12CCN(S(=O)(=O)N1CCCC1)CC2 90
